# maps each entry to its pEC50
Target: T1, human Claudin18.2 (CLDN18.2) (human, UniProt P56856 1-261)
T1 construct: the cell line is named under assay; also called human Claudine18.2; hClaudin18.2
Test: FACS on GAXC031 cells
pEC50: −log10 of the molar value.

binder	pEC50
chAb10 (antibody, V domains shown) VH: EVMLVESGGGLVKPGGSLKLSCAASGFTFSSYTMSWVRQTPEKRLEWVATISVIGGNTYYVDSVKGRFTISRDKAKNTLYLQMSSLRSEDTALYYCARLGQTQRNAMDYWGQGTSVTVSS VL: DIVMTQSPSSLSVSAGEKVTMSCKSSQSLLNSGNQKNYLAWYQQKPGQPPKLLIYGASTRESGVPDRFTGSGSGTDFTLTISSVQAEDLAVYYCQNDYSYPLTFGAGTKLELK	7.53
chAb17 (antibody, V domains shown) VH: QVQLKESGPGLVAPSQSLSITCTVSGFSLTSYAISWVRQPPGKGLEWLGEIWTGGGTNYNSALKSRLSISKDNSKSQVFLKMNSLQTDDTARYYCGRLSYGNSLDYWGQGTTLTVSS VL: DIVMTQSPSSLTVTAGEKVTMSCKSSQSLLNSGNQKNYLTWYQQKPGQPPKLLIYWASTRESGVPDRFTGSGSGTDFTLTVSSVQAEDLAVYYCQNNFIYPLTFGPGTKLELK	7.03
IMAB362 (Zolbetuximab) (antibody, V domains shown) VH: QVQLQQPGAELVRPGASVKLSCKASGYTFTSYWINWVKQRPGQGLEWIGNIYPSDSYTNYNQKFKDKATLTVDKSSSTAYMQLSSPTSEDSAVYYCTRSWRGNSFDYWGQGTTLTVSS VL: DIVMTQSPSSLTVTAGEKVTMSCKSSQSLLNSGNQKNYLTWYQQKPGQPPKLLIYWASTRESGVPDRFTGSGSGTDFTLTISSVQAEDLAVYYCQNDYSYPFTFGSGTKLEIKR	7.44
chAb15 (antibody, V domains shown) VH: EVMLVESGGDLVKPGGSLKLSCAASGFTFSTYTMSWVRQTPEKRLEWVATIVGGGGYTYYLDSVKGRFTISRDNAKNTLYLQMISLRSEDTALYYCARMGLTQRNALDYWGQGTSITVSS VL: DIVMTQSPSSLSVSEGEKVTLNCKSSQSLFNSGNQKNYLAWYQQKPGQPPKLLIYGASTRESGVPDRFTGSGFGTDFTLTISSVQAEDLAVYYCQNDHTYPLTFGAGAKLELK	7.50

From: patent US20230095569A1
